The values you see were collected from the supplement of paper PMC9170038.

System: MS2 coat protein
procedure_summary: apparent KD of MS2 coat protein; designed switch direction (-1 OFF switch, 1 ON switch): -1; higher = weaker reporter binding
condition_parameters: input ligand: none
Measured apparent KD of MS2 coat protein accompanies every entry in the list below.
Please state the figure in µM; there is no need to write the unit.

In the examples that follow, each entry is paired with its recorded apparent KD of MS2 coat protein.
[[record]]
input_sequence = "CGUUAGUGAGGAUAUGGAAAUAGGUACAUGAGGAUCACCCAUGUUUGAAGGGAAAAGAGCCUAGAAGGCACUAACG [JR_Ex5_Sub055] (Eterna round: R97, puzzle: Exclusion 5)"
measured_metric = "apparent KD of MS2 coat protein"
uom = "µM"
measurement = 0.0352

[[record]]
input_sequence = "CAGUACUGAGGAUAUACAUGAGGAUCACCCAUGUGUGUGCGUUUUGUAUGAAUGUUAUGUAGAAGGCGGUGCUG [JR_Ex3_Sub035] (Eterna round: R97, puzzle: Exclusion 3)"
measured_metric = "apparent KD of MS2 coat protein"
uom = "µM"
measurement = 0.0391


### Prompt Please look up its apparent KD of MS2 coat protein: CCUCAGUGAGGAUAUGCUGCCGCCGUGAAUACACACCGCGCGUAGAAGGCACAUGAGGAUCACCCAUGUGAAGG [Eternabot (Original) Solution 9] (Eterna round: R97, puzzle: Exclusion 4)
### Response 0.0977
